- EXPERIMENT: compound effects on lung adenocarcinoma cell viability – A549, calcein-AM fluorescence, 48 h, basal, profiling panel (AID 1162); also: test concentration not given here
- EXPERIMENTAL CONDITIONS: higher = more signal
PARAMETER MEASURED: z-score
Just the number.

Form field z-score, entry `COc1ccc([Si](C)(C)[C@H]2[C@H](CC(=O)N3CCC[C@H]3CO)O[C@@]3(C(=O)N(c4ccccc4)c4ccccc43)[C@@H]2C)cc1` : 1.35

Form field z-score, entry CCN(CC)c1ccc(N2CC=CC34O[C@@H]5C=CCCOC(=O)C5[C@H]3C(=O)N(CCCO)[C@@H]4C2=O)cc1 (stereo partly drawn) : -0.0905

====

- EXPERIMENT: small molecules captured by biotinylated probe aFGF2 – biochemical, small-molecule microarray, fluorescence 635/667, stem cell growth factor project, primary screen (AID 1067);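 also: measures binding of biotinylated aFGF2 protein to printed compounds on slides; z-score merges feature fluorescence and signal-to-noise across triplicate slides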
- EXPERIMENTAL CONDITIONS: higher = more signal
PARAMETER MEASURED: composite z-score
Just the number.

Study these solved cases before continuing.
| MOLECULE | composite z-score |
| --- | --- |
| CN1C(=O)C2C(C1=O)C1C=C(c3ccc(CO)cc3)C2C(C2CC2)N1Cc1cc2c(cc1Br)OCO2 (stereo unspecified) | -0.0171 |
| O=C(CS)NCCCCCCNC(=O)[C@H]1C[C@H]2C(=O)N3CCC[C@H]3C(=O)N2[C@H]1c1ccc(O)cc1 | -0.0759 |
| O=C1c2ccccc2[C@@]2(Cc3ccccc3N(Cc3ccccc3)C2=O)[C@H](c2ccc(CO)cc2)N1Cc1ccccc1C(F)(F)F | -0.083 |
| CCCC[C@H]1OB(O)C[C@H]2C1=C(C)Cn1c(=O)n(-c3ccccc3)c(=O)n12 | -0.116 |
| [N-]=[N+]=NCc1ccccc1C[C@]1(C(N)=O)N=C(c2ccc(OCCCO)cc2)O[C@H]1c1ccccc1N=[N+]=[N-] | -0.0085 |

Form field composite z-score, entry `COc1ccc([Si](C)(C)[C@H]2[C@H](CCO)O[C@@]3(C(=O)N(Cc4ccccc4)c4ccc(N5C(=O)COc6ccccc65)cc43)[C@@H]2C)cc1` : -0.0692

====

- EXPERIMENT: growth effects on S. cerevisiae YJM789 – YJM789 clinical isolate, OD600, 24 h, basal, primary screen (AID 1089);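 also: growth of clinical yeast isolate S. cerevisiae YJM 789 seeded 1000 cells per well; test concentration not given here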
- EXPERIMENTAL CONDITIONS: higher = more signal, called active from +8 up or from −8 down
Assign class by z-score: not lower than -0.3 means Y; lower than -0.3 means N.

| COMPOUND | CATEGORY |
| --- | --- |
| CCCNC(=O)[C@@]1(C)c2ccccc2C(=O)N(Cc2cc(C(F)(F)F)cc(C(F)(F)F)c2)[C@H]1c1ccc(CO)cc1 | Y |
| COCCOC(=O)N1C(=O)[C@@]2(c3cc(C#Cc4ccc(OC)cc4)ccc31)[C@H](c1ccc(O)cc1)N1[C@H](c3ccccc3)[C@H](c3ccccc3)OC(=O)[C@H]1[C@@H]2C(=O)N1CCN(c2ncccn2)CC1 | Y |
| C[C@H]1C2[C@H](Cc3ccccc3)NC(=O)[C@]23C(=O)N[C@H](Cc2ccccc2)C(=O)N[C@H](Cc2ccccc2)C(=O)NC/C=C/CCC/C=C/C3[C@@H]2O[C@]12C (some centres undefined) | Y |
| Cc1ccc([C@H]2C(C(=O)O)=C[C@@H](C(C)C)N2S(=O)(=O)c2ccc(C)cc2)cc1 | N |
| Cc1ccc(S[C@]2(C(=O)NCc3ccccc3)CC(=O)N(Cc3cc(C(F)(F)F)cc(C(F)(F)F)c3)[C@@H]2c2ccc(CO)cc2)cc1 | Y |

Asked: Test whether the compound CCCCN1CC=CC23O[C@@H]4C=CCCOC(=O)C4[C@H]2C(=O)N(CCCO)[C@@H]3C1=O (some centres undefined) records z-score of -0.3 or higher.
Given back: Y

Asked: Test whether the compound `[N-]=[N+]=NCc1ccccc1[C@H]1OC(c2ccc(OCCCO)cc2)=N[C@@]1(Cc1ccccc1)C(=O)O` records z-score of -0.3 or higher.
Given back: N

Asked: Test whether the compound `CC(C)C(=C=CC[C@H](O)c1ccccc1OCCO)CCO` records z-score of -0.3 or higher.
Given back: N
